System: KM12 colon
assay.comment: NCI tumour cell line growth inhibition, 48 h; in the data active means GI50 below about 0.43 µM; inactive means the rest
Outcomes: TRUE = active, FALSE = inactive

1) Cc1ccc(-c2nc(C#N)c(S(=O)(=O)n3nc(C)cc3N)o2)cc1 = FALSE
2) COc1ccc(/C=C/C(=O)c2ccc(O)c(CN3CCN(c4cc5c(cc4F)c(=O)c(C(=O)O)cn5C4CC4)CC3)c2)cc1 = FALSE
3) Cc1ccc(C(CC(=O)c2ccccc2)C2C(=O)NC(=O)NC2=O)cc1 (configuration not stated) = FALSE
4) O=C(Nc1ccncc1)C(=O)c1cn(Cc2ccc(Cl)cc2)c2ccccc12 = TRUE
5) Cc1cc(NCCN(C(C)C)C(C)C)nc(/N=C(\N)Nc2ccc(Cl)c(C(F)(F)F)c2)n1 = FALSE
6) COc1cc(Nc2c(C#N)cnc3cc(OCCCN4CCN(C)CC4)c(OC)cc23)c(Cl)cc1Cl = TRUE
7) Nc1nc(N)c2nc(CNc3ccc(C(=O)NC(CC(=O)O)C(=O)O)cc3)cnc2n1 (configuration not stated) = FALSE

====

Test system: SF-268 CNS
assay.comment: NCI tumour cell line growth inhibition, 48 h
Listed here: items and their measured GI50.
assay.readout: GI50

1. CCC(C)[C@H]1O[C@]2(C=C[C@@H]1C)C[C@@H]1C[C@@H](C/C=C(\C)[C@@H](OC3C[C@H](OC)C(O[C@H]4C[C@H](OC)[C@@H](O)[C@H](C)O4)[C@H](C)O3)[C@@H](C)/C=C/C=C3\CO[C@@H]4[C@H](O)C(C)=C[C@@H](C(=O)O1)[C@]34O)O2 (stereo partly drawn) = 1010 nM
2. CCN(Cc1ccc(F)cc1)c1ccc(CO)c(F)c1 = 24800 nM
3. COc1cc2c3c(n(CCCCN)c(=O)c2cc1OC)-c1cc2c(cc1C3=O)OCO2 = 801 nM

====

System: LOX IMVI melanoma
assay.comment: NCI tumour cell line growth inhibition, 48 h
Listed here: items and their measured TGI.
assay.readout: TGI

1. C=C1/C(=C\C=C2/CCC[C@]3(C)[C@@H]([C@H](C)CCCC(C)(C)O)CC[C@@H]23)C[C@@H](OC(=O)CBr)C[C@@H]1O = 0.304 µM
2. O=C(CCc1ccc(O)c(O)c1)NCCc1cc(O)cc(O)c1 = > 100 µM
3. CCCCC[C@H]1C/C=C2/C(=O)C=C[C@@H]2C/C=C\CCCC(=O)O[C@@H](CCCCC)C/C=C2/C(=O)C=C[C@@H]2C/C=C\CCCC(=O)O1 = 0.217 µM
4. O=c1ccn(C2CC(O)C(CO)O2)c(=O)[nH]1 (centres undefined) = > 5000 µM
5. CCSc1nc2cccc([N+](=O)[O-])c2n1CC = > 100 µM
6. O=C(Nc1cccc(-n2cc(-c3ccncc3)c(-c3ccc(Cl)c(O)c3)n2)c1)c1ccc(N2CCOCC2)c(C(F)(F)F)c1 = 7.29 µM
7. CCOC(=O)c1nc2ccccc2nc1NCc1cc(OC)c(OC)c(OC)c1 = > 100 µM
8. N#C/C(c1nc2ccccc2[nH]1)=c1\s/c(=C/c2ccc(Cl)cc2)c(=O)n1-c1ccccc1 = > 100 µM
9. COc1ccc(C2CC(C)(O)Oc3cc4c(cc32)OCO4)cc1 (centres undefined) = > 100 µM
